Assay: qHTS assay to identify small molecule antagonists of the constitutive androstane receptor (CAR) signaling pathway - cell viability counter screen (AID 1224837); also: % is scaled to controls: 0 for no effect and ±100 for the full control effect; nearly all actives have a fitted effect of over 45% in size
Conditions: HepG2-CYP2B6-hCAR viability, CellTiter-Fluor, 23 h, co-treated with 50 nM CITCO; series mostly up to 92.4 µM
Records with an inconclusive call do not appear. Calls of active or inactive are those of the source. Calls follow the shape of the dose curve; as a rule, active = well fitted cell-killing curve with a large enough effect in the repeat runs; inconclusive = weak or mixed curves, or effect the other way; inactive = flat fitted curve, though single readings scatter.
readout: activity change, negative = cytotoxicity

{"columns": ["compound", "result"],
 "data": [
  ["O=C(O)COCC(=O)O", "inactive"],
  ["CC(C)(C)NCC(O)COc1ccc(NC(=O)NC2CCCCC2)cc1 (stereo not drawn)", "inactive"],
  ["C=CCCC", "inactive"],
  ["CCCCCCCCCCCCN1CCOCC1", "inactive"],
  ["Nc1nc(Cl)nc2c1ncn2[C@H]1C[C@H](O)[C@@H](CO)O1", "inactive"],
  ["O=C(O)CNc1ccccc1", "inactive"],
  ["CCc1ccc2c(c1)C(=O)c1ccccc1C2=O", "inactive"],
  ["Cc1ccc(S(=O)(=O)NC(=O)NC2CCCC2)cc1", "inactive"]
]}

###

Assay: qHTS assay to test for compound auto fluorescence at 460 nm (blue) in HepG2 cell free culture (AID 720685); also: % is scaled to controls: 0 for no effect and ±100 for the full control effect
Settings: Cell-free culture medium, blue autofluorescence 405/460 nm; series mostly up to 91.3 µM
Active and inactive are the calls of the source. The call rests on the fitted dose curve; in most records, active means well fitted curve in the direction sought with a large enough effect in the repeat runs; inconclusive means weak or mixed curves; inactive means flat fitted curve, though single readings scatter.
readout: fluorescence, % of fluorescent control

{"columns": ["compound", "readout", "result"],
 "data": [
  ["C[C@]12CCC(=O)C=C1[C@@H]1C[C@@H]1[C@H]1[C@@H]3[C@@H]4C[C@@H]4[C@@]4(CCC(=O)O4)[C@@]3(C)CC[C@@H]12", "fluorescence, % of fluorescent control", "inactive"],
  ["CCCCCCCCCCCCCCCCC(=O)O", "fluorescence, % of fluorescent control", "inactive"],
  ["Cc1cc(C)n(CO)n1", "fluorescence, % of fluorescent control", "inactive"],
  ["c1ccc(CN(Cc2ccccc2)Cc2ccccc2)cc1", "fluorescence, % of fluorescent control", "inactive"],
  ["CCCOC(C)=O", "fluorescence, % of fluorescent control", "inactive"],
  ["O=S(=O)(O)c1cc(Cl)c(Cl)cc1Cl", "fluorescence, % of fluorescent control", "inactive"],
  ["CC/C=C/CCO", "fluorescence, % of fluorescent control", "inactive"],
  ["COc1ccc(CN(CCN(C)C)c2ncccn2)cc1", "fluorescence, % of fluorescent control", "inactive"],
  ["CCOCCn1c(N2CCCN(C)CC2)nc2ccccc21", "fluorescence, % of fluorescent control", "inactive"],
  ["c1ccc(-c2ccc(-c3ccccc3)cc2)cc1", "fluorescence, % of fluorescent control", "0.0163% [at 18.6 µM] (inactive)"],
  ["O=C(O)c1ccncc1", "fluorescence, % of fluorescent control", "inactive"],
  ["COC(=O)Cc1cccc2ccccc12", "fluorescence, % of fluorescent control", "inactive"],
  ["O=C(Cl)c1cc(Cl)cc(Cl)c1", "fluorescence, % of fluorescent control", "inactive"],
  ["Cc1c(Nc2ncccc2C(=O)O)cccc1C(F)(F)F", "fluorescence, % of fluorescent control", "0.0612% [at 18.6 µM] (inactive)"],
  ["O=C(O)c1ccc(O)c(O)c1", "fluorescence, % of fluorescent control", "inactive"],
  ["Cc1ccc2ccccc2c1[N+](=O)[O-]", "fluorescence, % of fluorescent control", "inactive"],
  ["CCCCCCCCNC", "fluorescence, % of fluorescent control", "inactive"],
  ["CC(C)C/C=C(\\C=O)c1ccccc1", "fluorescence, % of fluorescent control", "inactive"],
  ["O=C(N[C@@H](Cc1ccccc1)[C@@H](O)C(=O)N1C[C@@H](O)[C@@H](O)C1)c1cc2cc(Cl)ccc2[nH]1", "fluorescence, % of fluorescent control", "inactive"],
  ["Cc1cc(C)c(C)c(O)c1", "fluorescence, % of fluorescent control", "inactive"],
  ["CC(C)CC(C)(C)C", "fluorescence, % of fluorescent control", "inactive"],
  ["CCc1cnc(C(=O)O)c(C(=O)O)c1", "fluorescence, % of fluorescent control", "inactive"],
  ["OCCCO", "fluorescence, % of fluorescent control", "inactive"],
  ["CCCCCCCCS", "fluorescence, % of fluorescent control", "inactive"],
  ["CCC(C)C1N=C(C)C(C)S1 (stereo unspecified)", "fluorescence, % of fluorescent control", "inactive"],
  ["CCCCCCCCCCCCSCCOCCO", "fluorescence, % of fluorescent control", "inactive"],
  ["Nc1cccc2c(=O)[nH][nH]c(=O)c12", "fluorescence, % of fluorescent control", "inactive"],
  ["c1ccc(CCNc2nc(-c3ccccc3)cs2)cc1", "fluorescence, % of fluorescent control", "inactive"],
  ["Cc1ccc(S(=O)(=O)NC(=O)NC2CCCC2)cc1", "fluorescence, % of fluorescent control", "inactive"],
  ["CCC1=C(C)CN(C(=O)NCCc2ccc(S(=O)(=O)NC(=O)NC3CCC(C)CC3)cc2)C1=O (stereo unspecified)", "fluorescence, % of fluorescent control", "inactive"],
  ["Cc1c(N=C=O)cccc1N=C=O", "fluorescence, % of fluorescent control", "inactive"],
  ["O=C(O)c1c2ccccc2cc2ccccc12", "fluorescence, % of fluorescent control", "inactive"],
  ["Clc1cccc(C(c2ccc3nc[nH]c3c2)n2ccnc2)c1 (stereo unspecified)", "fluorescence, % of fluorescent control", "inactive"],
  ["CC1(COc2ccc(CC3SC(=O)NC3=O)cc2)CCCCC1 (stereo unspecified)", "fluorescence, % of fluorescent control", "inactive"],
  ["CCOc1ccc2c(c1)C(C)CC(C)(C)N2 (stereo unspecified)", "fluorescence, % of fluorescent control", "inactive"],
  ["CCCc1nc(C)c2c(=O)[nH]c(-c3cc(S(=O)(=O)N4CCN(CC)CC4)ccc3OCC)nn12", "fluorescence, % of fluorescent control", "inactive"],
  ["O=Cc1ccc(Cl)c([N+](=O)[O-])c1", "fluorescence, % of fluorescent control", "inactive"],
  ["CS(C)=O", "fluorescence, % of fluorescent control", "inactive"],
  ["C1CCN(CN2CCCCC2)CC1", "fluorescence, % of fluorescent control", "inactive"],
  ["O=[N+]([O-])c1ccccc1CCO", "fluorescence, % of fluorescent control", "inactive"],
  ["CCOC(OCC)OCC", "fluorescence, % of fluorescent control", "inactive"],
  ["CCCC1CCCC(=O)O1 (stereo unspecified)", "fluorescence, % of fluorescent control", "inactive"],
  ["CCC(=O)O[C@@H]1C[C@H]2CC[C@]1(C)C2(C)C", "fluorescence, % of fluorescent control", "inactive"],
  ["CC(C)Oc1ccccc1O", "fluorescence, % of fluorescent control", "inactive"],
  ["O=C1OC(=O)C2CC=CCC12 (stereo unspecified)", "fluorescence, % of fluorescent control", "inactive"],
  ["Cc1c(-c2cccnc2)c2ccccc2n1CCCCC(=O)O", "fluorescence, % of fluorescent control", "inactive"],
  ["NC(=O)c1cc[n+](CC2=C(C(=O)[O-])N3C(=O)[C@@H](NC(=O)Cc4cccs4)[C@H]3SC2)cc1", "fluorescence, % of fluorescent control", "0.491% [at 18.6 µM] (inactive)"],
  ["SCCOCCOCCS", "fluorescence, % of fluorescent control", "inactive"],
  ["O=c1[nH][nH]c2ccccc12", "fluorescence, % of fluorescent control", "inactive"],
  ["COc1cccc([C@H](O)C2CCN(CCc3ccc(F)cc3)CC2)c1OC", "fluorescence, % of fluorescent control", "inactive"],
  ["CC(C(=O)O)c1ccc2c(c1)Cc1cccnc1O2 (stereo unspecified)", "fluorescence, % of fluorescent control", "inactive"]
]}
